Each entry below lists one item and its recorded % Inhibition n=1 48h value.
test system: G. duodenalis BRIS/91/HEPU/1279; assay: Primary Giardia screen at 10 µM (live-cell imaging, automated counting); assay type: cell-based, Giardia duodenalis; conditions: 48 h, first singlicate assay
Lab book: enter the figure in %, no units written.

{"columns": ["MOLECULE", "MEASUREMENT TYPE", "MEASURED"],
 "data": [
  ["CCOC(=O)c1ccc(NC(=O)c2nc(C)n(C3CCN(C(C)=O)CC3)c2C)cc1 [SN00800452]", "% Inhibition n=1 48h", 13.2]
]}

Request: Param readout= % Inhibition n=1 48h; system= G. duodenalis BRIS/91/HEPU/1279; entry= Cc1nc(-n2nc(C)c(Cc3ccccc3Cl)c2C)sc1C(=O)NC(C)C [SN00786185] ; returns value.
Response: 0.0

Request: Param readout= % Inhibition n=1 48h; system= G. duodenalis BRIS/91/HEPU/1279; entry= c1ccc(-c2cn3nc(-c4ccccc4)n4c3c2CCCC4)cc1 [SN00776412] ; returns value.
Response: 0.0

Request: Param readout= % Inhibition n=1 48h; system= G. duodenalis BRIS/91/HEPU/1279; entry= COc1ccc(C2NC(C(=O)O)Cc3c2[nH]c2ccccc32)c(OC)c1 (stereo not drawn) [SN00783957] ; returns value.
Response: 5.0

Request: Param readout= % Inhibition n=1 48h; system= G. duodenalis BRIS/91/HEPU/1279; entry= CCn1c(Cn2cccn2)nc2cc(NC(C)=O)ccc21 [SN00786137] ; returns value.
Response: 11.6

Request: Param readout= % Inhibition n=1 48h; system= G. duodenalis BRIS/91/HEPU/1279; entry= Cc1ccc2oc(-c3noc(C4CC(=O)N(c5ccccc5)C4)n3)c(C)c2c1 (stereo not drawn) [SN00796597] ; returns value.
Response: 2.9

Request: Param readout= % Inhibition n=1 48h; system= G. duodenalis BRIS/91/HEPU/1279; entry= COc1ccccc1NC(=O)c1cn2c3c(cc(Br)cc3c1=O)CC2 [SN00794326] ; returns value.
Response: 11.4

Request: Param readout= % Inhibition n=1 48h; system= G. duodenalis BRIS/91/HEPU/1279; entry= COc1cccc([C@H]2C[C@@H](C(F)(F)F)n3ncc(C(=O)N4CCCCC4)c3N2)c1 (relative stereo) [SN00783803] ; returns value.
Response: 0.0

Request: Param readout= % Inhibition n=1 48h; system= G. duodenalis BRIS/91/HEPU/1279; entry= Cc1ccc(NC(=O)c2nc3c(=O)n(Cc4ccccc4C)c4cc(C)ccc4n3n2)cc1 [SN00794983] ; returns value.
Response: 3.1

---

system: G. duodenalis BRIS/91/HEPU/1279; test: Primary Giardia screen at 10 µM (live-cell imaging, automated counting); type: cell-based, Giardia duodenalis; details: 48 h, first singlicate assay
MEASUREMENT TYPE: % Inhibition n=1 48h (%)
Lab book: enter the figure in %, no units written.

These recorded examples may help you get a feel for the data.
{"columns": ["COMPOUND", "SYSTEM UNDER TEST", "% Inhibition n=1 48h, %"],
 "data": [
  ["COc1ccccc1CCC(=O)N1CCN(c2ncnc3[nH]cnc23)CC1", "G. duodenalis BRIS/91/HEPU/1279", 0.0],
  ["O=C(c1cc2occc2c(Nc2ccc(F)cc2)n1)N1CCN(c2ccccn2)CC1", "G. duodenalis BRIS/91/HEPU/1279", 53.8],
  ["Cc1ccc(NC(=O)c2cc(-c3ccc4c(c3)OCCO4)on2)cc1C", "G. duodenalis BRIS/91/HEPU/1279", 2.9],
  ["O=C(C1=C(O)C(=O)N(CCN2CCOCC2)C1c1ccncc1)c1ccccc1 (stereo not shown)", "G. duodenalis BRIS/91/HEPU/1279", 0.7],
  ["COc1cccc(Nc2nc(N3CCN(c4ccccc4)CC3)nc3c2cnn3C)c1", "G. duodenalis BRIS/91/HEPU/1279", 5.8],
  ["COc1ccc(OCC(=O)N2CCN(Cc3ccc(C)cc3)c3ncccc32)cc1", "G. duodenalis BRIS/91/HEPU/1279", 6.7],
  ["CCOC(=O)c1cccc(NC(=O)c2cnc(C)nc2C)c1", "G. duodenalis BRIS/91/HEPU/1279", 0.0],
  ["CCC(=O)N1CC(C(=O)NCCN(C)C)C2(CCOCC2)C1 (stereo not shown)", "G. duodenalis BRIS/91/HEPU/1279", 13.1]
]}

Request: Given the compound CCc1cccc(NC(=O)C2CCCN(S(=O)(=O)c3c(C)noc3C)C2)c1 (stereo not shown) , what is its reported % Inhibition n=1 48h?
Response: 0.0

Request: Given the compound COc1cccc(CNC(=O)c2nsc(C(=O)NCc3ccccc3F)c2N)c1 , what is its reported % Inhibition n=1 48h?
Response: 13.9

Request: Given the compound O=C(Nc1cccc(C(F)(F)F)c1)c1cnn2c(C(F)(F)F)cc(-c3ccco3)nc12 , what is its reported % Inhibition n=1 48h?
Response: 9.2

Request: Given the compound CCc1ncncc1C(=O)N1CCN(Cc2nc(C(C)C)no2)CC1 , what is its reported % Inhibition n=1 48h?
Response: 26.6

Request: Given the compound CCc1nnc2sc(-c3ccc(CNC(=O)c4ccc(Br)o4)cc3)nn12 , what is its reported % Inhibition n=1 48h?
Response: 48.2

Request: Given the compound CCOc1ccc(-c2nc3sc4cc(C)ccc4n3c2NCCOC)cc1 , what is its reported % Inhibition n=1 48h?
Response: 0.0

Request: Given the compound CCc1nnc2n1CCN(Cc1csc(-c3ccsc3)n1)C2 , what is its reported % Inhibition n=1 48h?
Response: 24.2

Request: Given the compound COc1ccc(C(C)(C)C)cc1S(=O)(=O)N1CCN(c2nc(C)cc(N3CCOCC3)n2)CC1 , what is its reported % Inhibition n=1 48h?
Response: 5.9
